# Test system: Rattus norvegicus
# Assay name: Anti-inflammatory activity in sc dosed Sprague-Dawley Rattus norvegicus (rat) assessed as inhibition of carrageenan-induced paw edema administered at 1 hr prior to carrageenan injection measured at 4 hr post-carrageenan challenge by water plethysmometer
# Type: functional
Given measured inhibition (INH), output class 1 if it is greater than or equal to 40% and class 0 if not.

{"Substance smiles": "Cc1ccc(-n2cc(-c3ccccc3)c3c2ncn2cnnc32)cc1", "Label": "class 0"}
{"Substance smiles": "Cc1ccc(-n2cc(-c3ccccc3)c3c(N/N=C/c4ccccc4)ncnc32)cc1", "Label": "class 1"}
{"Substance smiles": "COc1ccc(-n2cc(-c3ccccc3)c3c(N/N=C/c4ccccc4)ncnc32)cc1", "Label": "class 1"}
{"Substance smiles": "COc1ccc(-n2c(-c3ccccc3)c(-c3ccccc3)c3c(N/N=C/c4ccccc4)ncnc32)cc1", "Label": "class 1"}
{"Substance smiles": "Cc1ccc(-n2c(-c3ccccc3)c(-c3ccccc3)c3c2ncn2c(=S)[nH]nc32)cc1", "Label": "class 0"}
{"Substance smiles": "COc1ccc(-n2c(-c3ccccc3)c(-c3ccccc3)c3c2ncn2cnnc32)cc1", "Label": "class 1"}
{"Substance smiles": "COc1ccc(-n2c3c(c(-c4ccccc4)c2-c2ccccc2)C2=NNC(=O)CN2C=N3)cc1", "Label": "class 0"}
{"Substance smiles": "Cc1ccc(-n2c(-c3ccccc3)c(-c3ccccc3)c3c2ncn2c(C)nnc32)cc1", "Label": "class 0"}

====

Measured inhibition (INH) of individual entries
# System: Rattus norvegicus
# Assay name: Anti-inflammatory activity in sc dosed Sprague-Dawley Rattus norvegicus (rat) assessed as inhibition of carrageenan-induced paw edema administered at 1 hr prior to carrageenan injection measured at 4 hr post-carrageenan challenge by water plethysmometer
# Assay type: functional
Test readout: inhibition (INH)

{"Substance smiles": "Cc1ccc(-n2c(-c3ccccc3)c(-c3ccccc3)c3c(NN)ncnc32)cc1", "Value measured": "18.57%"}
{"Substance smiles": "COc1ccc(-n2c(-c3ccccc3)c(-c3ccccc3)c3c2ncn2c(=O)[nH]nc32)cc1", "Value measured": "36.5%"}
{"Substance smiles": "Cc1ccc(-n2c(-c3ccccc3)c(-c3ccccc3)c3c2ncn2cnnc32)cc1", "Value measured": "44.44%"}
{"Substance smiles": "Cc1ccc(-n2cc(-c3ccccc3)c3c2ncn2c(=S)[nH]nc32)cc1", "Value measured": "39.21%"}
{"Substance smiles": "Cc1ccc(-n2c3c(c(-c4ccccc4)c2-c2ccccc2)C2=NNC(=O)CN2C=N3)cc1", "Value measured": "34.92%"}

====

# Test system: Rattus norvegicus
# Assay name: Anti-inflammatory activity in sc dosed Sprague-Dawley Rattus norvegicus (rat) assessed as inhibition of carrageenan-induced paw edema administered at 1 hr prior to carrageenan injection measured at 4 hr post-carrageenan challenge by water plethysmometer
# Assay type: functional

{"Substance smiles": "Cc1ccc(-n2c(-c3ccccc3)c(-c3ccccc3)c3c2ncn2nnnc32)cc1", "Unit abbreviation": "%", "inhibition (INH)": 31.59}
{"Substance smiles": "Cc1ccc(-n2cc(-c3ccccc3)c3c(-n4nc(C)cc4C)ncnc32)cc1", "Unit abbreviation": "%", "inhibition (INH)": 59.25}
{"Substance smiles": "COc1ccc(-n2c(-c3ccccc3)c(-c3ccccc3)c3c(-n4nc(C)cc4C)ncnc32)cc1", "Unit abbreviation": "%", "inhibition (INH)": 74.6}
{"Substance smiles": "COc1ccc(-n2c(-c3ccccc3)c(-c3ccccc3)c3c(NN)ncnc32)cc1", "Unit abbreviation": "%", "inhibition (INH)": 62.38}
{"Substance smiles": "COc1ccc(-n2cc(-c3ccccc3)c3c2ncn2c(C)nnc32)cc1", "Unit abbreviation": "%", "inhibition (INH)": 35.98}
{"Substance smiles": "Cc1ccc(-n2cc(-c3ccccc3)c3c(Cl)ncnc32)cc1", "Unit abbreviation": "%", "inhibition (INH)": 18.25}
{"Substance smiles": "COc1ccc(-n2c(-c3ccccc3)c(-c3ccccc3)c3c2ncn2c(C)nnc32)cc1", "Unit abbreviation": "%", "inhibition (INH)": 28.25}
{"Substance smiles": "COc1ccc(-n2cc(-c3ccccc3)c3c(Cl)ncnc32)cc1", "Unit abbreviation": "%", "inhibition (INH)": 18.89}
{"Substance smiles": "COc1ccc(-n2c(-c3ccccc3)c(-c3ccccc3)c3c(Cl)ncnc32)cc1", "Unit abbreviation": "%", "inhibition (INH)": 45.39}
{"Substance smiles": "COc1ccc(-n2c(-c3ccccc3)c(-c3ccccc3)c3c2ncn2nnnc32)cc1", "Unit abbreviation": "%", "inhibition (INH)": 39.21}
{"Substance smiles": "COc1ccc(-n2cc(-c3ccccc3)c3c(-n4nc(C)cc4C)ncnc32)cc1", "Unit abbreviation": "%", "inhibition (INH)": 61.9}
{"Substance smiles": "Cc1ccc(-n2c(-c3ccccc3)c(-c3ccccc3)c3c(N/N=C/c4ccccc4)ncnc32)cc1", "Unit abbreviation": "%", "inhibition (INH)": 32.8}
{"Substance smiles": "Cc1ccc(-n2cc(-c3ccccc3)c3c(NN)ncnc32)cc1", "Unit abbreviation": "%", "inhibition (INH)": 39.21}
{"Substance smiles": "COc1ccc(-n2c(-c3ccccc3)c(-c3ccccc3)c3c2ncn2c(=S)[nH]nc32)cc1", "Unit abbreviation": "%", "inhibition (INH)": 34.6}
{"Substance smiles": "COc1ccc(-n2cc(-c3ccccc3)c3c(NN)ncnc32)cc1", "Unit abbreviation": "%", "inhibition (INH)": 50.26}
{"Substance smiles": "Cc1ccc(-n2c(-c3ccccc3)c(-c3ccccc3)c3c(Cl)ncnc32)cc1", "Unit abbreviation": "%", "inhibition (INH)": 28.59}
{"Substance smiles": "Cc1ccc(-n2c(-c3ccccc3)c(-c3ccccc3)c3c2ncn2c(=O)[nH]nc32)cc1", "Unit abbreviation": "%", "inhibition (INH)": 42.85}
{"Substance smiles": "Cc1ccc(-n2cc(-c3ccccc3)c3c2ncn2c(C)nnc32)cc1", "Unit abbreviation": "%", "inhibition (INH)": 32.85}
{"Substance smiles": "COc1ccc(-n2cc(-c3ccccc3)c3c2ncn2c(=S)[nH]nc32)cc1", "Unit abbreviation": "%", "inhibition (INH)": 47.62}
{"Substance smiles": "COc1ccc(-n2cc(-c3ccccc3)c3c2ncn2cnnc32)cc1", "Unit abbreviation": "%", "inhibition (INH)": 36.19}
